The reported measurements were obtained from patent US7741348B2.

Test system: MDCK (canine kidney) cells
assay_text: 50% toxicity concentration in the anti-influenza screen (MDCK cells)
Format: cell-based
applied_conditions: 50% toxity concentration, Table 3-2 (influenza screen, MDCK cells)
Excerpt: 4. Screening of the samples for the anti-influenza virus A and B activity: MDCK (canine kidney) cells were used as the virus host to test the inhibition effect of the compounds of the present invention on the cytopathic effect (CPE) of the cells caused by the virus.
Param label: returns rule met when TC50 < 400 µg/mL, returns rule not met otherwise, including exact equality.

1. COC(=O)c1nc(-c2csc([C@@H](NC(=O)c3ccccc3F)C(C)C)n2)oc1C ... rule not met
2. COc1ccccc1C(=O)N[C@H](c1nc(-c2nc(C(=O)O)c(C)o2)cs1)C(C)C ... rule met
3. CCC(=O)N[C@H](c1nc(-c2nc(C(=O)OC)c(C)o2)cs1)C(C)C ... rule not met
4. C=CCCC(=O)N[C@H](c1nc(-c2nc(C(=O)OC)c(C)o2)cs1)C(C)C ... rule not met
5. COC(=O)c1nc(-c2csc([C@@H](NC(=O)CC3=CCCCC3)C(C)C)n2)oc1C ... rule met
6. C=CCC(=O)N[C@H](c1nc(-c2nc(C(=O)N[C@@H](C)c3nc(C(=O)OC)co3)c(C)o2)cs1)C(C)C ... rule not met
7. COC(=O)c1coc([C@H](C)NC(=O)c2nc(-c3csc([C@@H](NC(=O)C4CC4)C(C)C)n3)oc2C)n1 ... rule met
8. COC(=O)c1nc(-c2csc([C@@H](NC(=O)c3ccccc3)C(C)C)n2)oc1C ... rule met
9. COC(=O)c1nc(-c2csc([C@@H](NC(=O)c3cccc(F)c3)C(C)C)n2)oc1C ... rule not met
10. COC(=O)c1coc([C@H](C)NC(=O)c2nc(-c3csc([C@@H](NC(=O)CC4=CCCCC4)C(C)C)n3)oc2C)n1 ... rule not met
11. COC(=O)c1coc([C@H](C)NC(=O)c2nc(-c3csc([C@@H](NC(=O)C4CCCCC4)C(C)C)n3)oc2C)n1 ... rule met
12. COC(=O)c1nc(-c2csc([C@@H](NC(=O)C3CC3)C(C)C)n2)oc1C ... rule not met
13. COC(=O)c1coc([C@H](C)NC(=O)c2nc(-c3csc([C@@H](NC(=O)CC=C(C)C)C(C)C)n3)oc2C)n1 ... rule not met
14. C=CCC(=O)N[C@H](c1nc(-c2nc(C(=O)OC)c(C)o2)cs1)C(C)C ... rule not met
15. COC(=O)c1nc(-c2csc([C@@H](NC(=O)C(C)(C)C)C(C)C)n2)oc1C ... rule not met

###

assay_text: Cytotoxicity to HepG2.2.15 cells (MTT method)
Format: cell-based
applied_conditions: human, HepG2.2.15 cells (HBV-transgenic human hepatoma cells), 50% death concentration, eighth day
readout_label: CC50 (µM)

1) CCCCc1[nH]c(-c2cccs2)nc1C(=O)OCC ... 153
2) COC(=O)c1nc(-c2nccs2)sc1Cc1ccccc1 ... 174
3) COC(=O)c1coc([C@H](C)NC(=O)c2nc(-c3csc([C@@H](NC(=O)C4CCCC4)C(C)C)n3)oc2C)n1 ... 472
4) CCCc1[nH]c(-c2cccs2)nc1C(=O)OCC ... 124
5) CCOC(=O)c1nc(-c2ccc(CC)s2)oc1CC(C)C ... 80
6) CCCc1ccc(-c2nc(C(=O)OCC)c(CC(C)C)o2)s1 ... 80
7) CCOC(=O)c1nc(-c2cccs2)[nH]c1/C=C/c1ccccc1 ... 61
8) CCCCc1[nH]c(-c2nccs2)nc1C(=O)OCC ... 94.7
9) CCCc1ccc(-c2nc(C(=O)OCC)c(CC(C)C)s2)s1 ... 60
10) CCOC(=O)c1nc(-c2nc3cc(OC)ccc3s2)sc1CC(C)C ... 127
11) CCOC(=O)c1nc(-c2cccs2)[nH]c1-c1ccccc1 ... 569
12) CCOC(=O)c1nc(-c2cccs2)[nH]c1C1CC1 ... 34.4
13) CCOC(=O)c1nc(-c2cc3ccccc3[nH]2)sc1CC(C)C ... 21.7
14) CCCCc1oc(-c2cccs2)nc1C(=O)OCC ... 71.8
15) CCOC(=O)c1nc(-c2cccs2)sc1C1CCCCC1 ... 28.2
16) Clc1nc(-c2cccs2)[nH]c1-c1ccccc1 ... 270
17) c1ccc(-c2cnc(-c3cccs3)s2)cc1 ... 84.5
